assayDetails: inhibition of PAO1 biofilm formation – strain PAO1, LB-PBS medium, absorbance 600 nm, primary screen (AID 1176); further: test concentration not given here
conditionLabel: P. aeruginosa PAO1 growth/biofilm, A600, 12 h; higher = more signal
z-score vs 0.3: at or above is 1 (yes), below is 0 (no).

Is it the case that "Cc1ccc(S[C@]2(C(=O)NCCN3CCOCC3)CC(=O)N(C3CCCCC3)[C@@H]2c2ccc(CO)cc2)cc1" has z-score reaching or exceeding 0.3?
0 (no)

Is it the case that "CCOC(=O)C[C@H]1[C@H](OC(=O)c2ccc(C(=O)c3ccccc3)cc2)[C@@H](NC(=O)c2ccc3ccccc3n2)c2cc(OCCCO)ccc2N1C(=O)c1ccc2ccccc2n1" has z-score reaching or exceeding 0.3?
1 (yes)

Is it the case that "NC(=O)[C@@]1(CCS(=O)(=O)c2ccccc2)N=C(c2ccc(OCCCO)cc2)O[C@H]1c1ccccc1" has z-score reaching or exceeding 0.3?
0 (no)

Is it the case that "C=CCNC(=O)[C@H]1[C@@H]2C(=O)O[C@@H](c3ccccc3)[C@@H](c3ccccc3)N2[C@@H](c2ccc(O)cc2)[C@]12C(=O)Nc1ccc(C#Cc3ccc(OC)cc3)cc12" has z-score reaching or exceeding 0.3?
1 (yes)

Is it the case that "COCCn1c(C(=O)N(C)C)cc2c1C[C@H]1CN(C(=O)c3ccccc3)[C@@](Cc3ccc(F)cc3)(C(=O)OC)[C@@H]21" has z-score reaching or exceeding 0.3?
1 (yes)

Is it the case that "CCCNC(=O)[C@@]1(C)c2ccccc2C(=O)N(Cc2cc(C(F)(F)F)cc(C(F)(F)F)c2)[C@H]1c1ccc(CO)cc1" has z-score reaching or exceeding 0.3?
1 (yes)

Is it the case that COc1cc(NN2C(C(O)c3ccccc3)C=CC3C(=O)N(c4ccccc4)C(=O)C32)cc(OC)c1OC (stereo not given) has z-score reaching or exceeding 0.3?
0 (no)

Is it the case that "CCCNC(=O)[C@@]1(C)c2ccccc2C(=O)N(Cc2ccc(OC(F)(F)F)cc2)[C@H]1c1ccc(CO)cc1" has z-score reaching or exceeding 0.3?
0 (no)

Is it the case that "C=C(COC)C(=O)CC[C@@H](OC(=O)c1ccccc1-c1ccccc1C(=O)O)c1ccc(CO)o1" has z-score reaching or exceeding 0.3?
1 (yes)

Is it the case that C=CCC(OC(C)=O)[C@@H]1[C@@H](N(Cc2cc3ccccc3o2)C(=O)c2cccc3ccccc23)c2cc(OCCCO)ccc2N1C(=O)Cc1ccc2ccccc2c1 (stereo not given in full) has z-score reaching or exceeding 0.3?
0 (no)

Is it the case that CC(C)(C)OC(=O)CC[C@@]1(C(=O)NCC(O)CO)N=C(c2ccc(OCCCO)cc2)O[C@@H]1c1ccccc1 (stereo not given in full) has z-score reaching or exceeding 0.3?
1 (yes)

Is it the case that "[N-]=[N+]=NCc1ccccc1[C@@H]1OC(c2ccc(OCCCO)cc2)=N[C@]1(Cc1ccccc1N=[N+]=[N-])C(N)=O" has z-score reaching or exceeding 0.3?
1 (yes)

Is it the case that CCOC(=O)N1C(c2ccc(OCCCO)cc2)=NC(C(=O)OC)N1C(=O)OCC (stereo not given) has z-score reaching or exceeding 0.3?
0 (no)

Is it the case that "[N-]=[N+]=NCc1ccccc1C[C@]1(C(=O)N2CCOCC2)N=C(c2ccc(OCCCO)cc2)O[C@H]1c1ccccc1" has z-score reaching or exceeding 0.3?
0 (no)

Is it the case that "COc1cc(CO)cc(I)c1O[C@H]1C=C(C(=O)NCCO)C[C@@H](N(CCc2cccc(F)c2)C(=O)CCC2CCCC2)[C@@H]1O" has z-score reaching or exceeding 0.3?
1 (yes)
